Target: sigma 2 binding site (Homo sapiens, UniProt Q5BJF2)
Sequence (Q5BJF2 whole entry): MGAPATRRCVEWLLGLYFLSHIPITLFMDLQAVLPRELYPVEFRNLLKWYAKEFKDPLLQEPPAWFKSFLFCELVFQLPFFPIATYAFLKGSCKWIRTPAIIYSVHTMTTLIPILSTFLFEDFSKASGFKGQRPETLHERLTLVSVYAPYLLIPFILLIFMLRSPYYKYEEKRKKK
Experiment: NIMH PDSP receptor binding assay, sigma 2
experimental_readout: Ki (nM)

In [3]: df
Out[3]:
                                   compound  experimental_readout  reported_result
0  CCNC(Cc1ccccc1)c1ccccc1 (stereo not shown)                    Ki              721

---

Molecular target: UniProtKB P23975
Sequence (P23975 whole entry): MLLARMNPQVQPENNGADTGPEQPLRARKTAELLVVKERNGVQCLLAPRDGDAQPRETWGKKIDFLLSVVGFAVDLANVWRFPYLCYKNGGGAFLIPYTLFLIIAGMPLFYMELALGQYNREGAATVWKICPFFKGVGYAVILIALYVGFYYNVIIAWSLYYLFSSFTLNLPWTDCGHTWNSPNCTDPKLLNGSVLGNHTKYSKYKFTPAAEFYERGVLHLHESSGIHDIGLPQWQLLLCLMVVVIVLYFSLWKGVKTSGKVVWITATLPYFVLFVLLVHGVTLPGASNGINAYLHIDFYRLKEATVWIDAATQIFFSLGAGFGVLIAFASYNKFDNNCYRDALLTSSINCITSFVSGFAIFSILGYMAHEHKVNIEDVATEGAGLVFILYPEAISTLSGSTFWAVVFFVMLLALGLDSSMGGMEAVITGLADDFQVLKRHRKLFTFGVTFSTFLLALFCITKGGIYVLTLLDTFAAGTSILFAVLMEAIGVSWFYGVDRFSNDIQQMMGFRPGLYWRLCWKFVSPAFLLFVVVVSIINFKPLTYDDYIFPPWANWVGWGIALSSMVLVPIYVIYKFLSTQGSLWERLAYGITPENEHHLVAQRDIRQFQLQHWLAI
experimental_readout: Ki (nM)

In [3]: df
Out[3]:
                                   compound    assayed_system  reported_result
0  CCNC(Cc1ccccc1)c1ccccc1 (stereo not shown) [ephenidine, N-Ethyl-1,2-diphenylethanamine]  UniProtKB P23975              841
